Hello, the source for this data is ChEMBL document CHEMBL1157001, in case you need it.

system: Bacillus cereus; assay: Antibacterial activity against Bacillus cereus MTCC 430 after 24 hrs; format: functional; conditions: MTCC 430, 24 h
Kindly state log10 MIC for each of the entries shown.
Units before log transform: µM; reported quantity: MIC; transform: log10.

> print(dat)
                                   compound    readout  value.reported
1  CC(=O)NC[C@H]1CN(c2ccc(N3CCN(C(=O)C4CC(c5ccccc5)=NO4)CC3)c(F)c2)C(=O)O1 (mixture of isomers)  log10 MIC            1.39
2  CC(=O)NC[C@H]1CN(c2ccc(N3CCN(C(=O)C4CC(c5ccc(C)cc5)=NO4)CC3)c(F)c2)C(=O)O1 (mixture of isomers)  log10 MIC           -0.44
3  CC(=O)NC[C@H]1CN(c2ccc(N3CCN(C(=O)C4CC(c5cccs5)=NO4)CC3)c(F)c2)C(=O)O1 (mixture of isomers)  log10 MIC            0.78
4  CC(=O)NC[C@H]1CN(c2ccc(N3CCN(C(=O)C4CC(c5ccc(C(F)(F)F)cc5)=NO4)CC3)c(F)c2)C(=O)O1 (mixture of isomers)  log10 MIC           -0.17
5  CC(=O)NC[C@H]1CN(c2ccc(N3CCN(C(=O)C4CC(c5ccc(F)cc5)=NO4)CC3)c(F)c2)C(=O)O1 (mixture of isomers)  log10 MIC           -0.13

Batch of 3 compounds: report log10 MIC for each.
1. CC(=O)NC[C@H]1CN(c2ccc(N3CCN(C(=O)C4CC(c5ccsc5)=NO4)CC3)c(F)c2)C(=O)O1 (mixture of isomers)
2. CC(=O)NC[C@H]1CN(c2ccc(N3CCN(C(=O)C4CC(c5ccc(Cl)c(Cl)c5)=NO4)CC3)c(F)c2)C(=O)O1 (mixture of isomers)
3. CC(=O)NC[C@H]1CN(c2ccc(N3CCN(C(=O)C4CC(c5ccc(Cl)cc5)=NO4)CC3)c(F)c2)C(=O)O1 (mixture of isomers)

Reply:
1.08
-0.81
-0.46

Parameter requested: log10 MIC. Apply to each item below.
1. COc1ccc(C2=NOC(C(=O)N3CCN(c4ccc(N5C[C@H](CNC(C)=O)OC5=O)cc4F)CC3)C2)cc1O (mixture of isomers)
2. CC(=O)NC[C@H]1CN(c2ccc(N3CCN(C(=O)C4CC(c5cccc(C(F)(F)F)c5)=NO4)CC3)c(F)c2)C(=O)O1 (mixture of isomers)
3. CC(=O)NC[C@H]1CN(c2ccc(N3CCOCC3)c(F)c2)C(=O)O1

Reply:
1: -0.47; 2: 0.13; 3: 0.36

###

Field: MIC. Provide a value for each of the compounds that follow.
system: Staphylococcus aureus; assay: Antibacterial activity against methicillin-resistant Staphylococcus aureus ATCC 70069 after 24 hrs; assay type: functional; conditions: ATCC 70069, 24 h
Answers are plain numbers, in µM.

COMPOUND	READOUT	VALUE REPORTED
CN[C@H](CC(C)C)C(=O)N[C@H]1C(=O)N[C@@H](CC(N)=O)C(=O)N[C@H]2C(=O)N[C@H]3C(=O)N[C@H](C(=O)N[C@H](C(=O)O)c4cc(O)cc(O)c4-c4cc3ccc4O)[C@H](O)c3ccc(c(Cl)c3)Oc3cc2cc(c3O[C@@H]2O[C@H](CO)[C@@H](O)[C@H](O)[C@H]2O[C@H]2C[C@](C)(N)[C@H](O)[C@H](C)O2)Oc2ccc(cc2Cl)[C@H]1O [VANCOMYCIN]	MIC	4.21
CC(=O)NC[C@H]1CN(c2ccc(N3CCN(C(=O)C4CC(c5cccc([N+](=O)[O-])c5)=NO4)CC3)c(F)c2)C(=O)O1 (mixture of isomers)	MIC	0.704
CC(=O)NC[C@H]1CN(c2ccc(N3CCN(C(=O)C4CC(c5ccc(C(F)(F)F)cc5)=NO4)CC3)c(F)c2)C(=O)O1 (mixture of isomers)	MIC	0.676
CC(=O)NC[C@H]1CN(c2ccc(N3CCN(C(=O)C4CC(c5ccc(Cl)c(Cl)c5)=NO4)CC3)c(F)c2)C(=O)O1 (mixture of isomers)	MIC	0.329

Answer for every listed entry: what is its MIC? The entries follow.
1. CC(=O)NC[C@H]1CN(c2ccc(N3CCN(C(=O)C4CC(c5ccccc5)=NO4)CC3)c(F)c2)C(=O)O1 (mixture of isomers)
2. CC(=O)NC[C@H]1CN(c2ccc(N3CCN(C(=O)C4CC(c5ccco5)=NO4)CC3)c(F)c2)C(=O)O1 (mixture of isomers)

Reply:
1. 24.6
2. 1.56

Task item: Item CC(=O)NC[C@H]1CN(c2ccc(N3CCN(C(=O)C4CC(c5ccsc5)=NO4)CC3)c(F)c2)C(=O)O1 (mixture of isomers) has what recorded MIC?
Reply: 6.06
